measurement_target: CYP2B6 (Homo sapiens, UniProt P20813)
run_description: Reversible CYP inhibition in human liver microsomes
Type: in vitro ADME
reported_conditions: human, human liver microsomes, pH 7.4, CYP 2B6, 2.09 µM, 30-Minute Preincubation; read-out: Percent of Control Activity

# record_smiles, activity at 2.09 µM [%]
records = [
    ("COc1cccc2[nH]c(C(=O)N[C@@H](CC(C)C)C(=O)N[C@@H](C[C@@H]3CCNC3=O)C(=O)CO)cc12", 101),
]

* * *

measurement_target: CYP2C8 (Homo sapiens)
Sequence (P10632 whole entry): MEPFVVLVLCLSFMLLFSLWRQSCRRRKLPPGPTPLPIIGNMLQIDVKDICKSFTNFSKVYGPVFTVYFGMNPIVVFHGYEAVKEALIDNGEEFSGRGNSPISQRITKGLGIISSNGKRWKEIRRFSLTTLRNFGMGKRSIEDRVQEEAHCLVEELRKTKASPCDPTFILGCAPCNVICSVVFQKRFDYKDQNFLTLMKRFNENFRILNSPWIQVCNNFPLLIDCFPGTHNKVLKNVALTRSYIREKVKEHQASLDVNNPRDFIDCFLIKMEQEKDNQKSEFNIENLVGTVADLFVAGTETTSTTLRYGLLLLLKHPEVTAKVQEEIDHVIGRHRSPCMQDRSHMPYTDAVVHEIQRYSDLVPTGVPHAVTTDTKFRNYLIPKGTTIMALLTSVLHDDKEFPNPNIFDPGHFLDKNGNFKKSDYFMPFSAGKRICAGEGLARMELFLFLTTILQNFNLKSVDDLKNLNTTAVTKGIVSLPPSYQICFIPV
run_description: Reversible CYP inhibition in human liver microsomes
reported_conditions: human, microsomes, pH 7.4, Percent of Control Activity, CYP 2C8, 100 µM, 30-Minute Preincubation

# record_smiles, activity at 100 µM (%)
measured = [
    ("COc1cccc2[nH]c(C(=O)N[C@@H](CC(C)C)C(=O)N[C@@H](C[C@@H]3CCNC3=O)C(=O)COP(=O)(O)O)cc12", 89.5),
]

* * *

measurement_target: Human Cathepsin D (Homo sapiens)
Sequence (P07339 65-412): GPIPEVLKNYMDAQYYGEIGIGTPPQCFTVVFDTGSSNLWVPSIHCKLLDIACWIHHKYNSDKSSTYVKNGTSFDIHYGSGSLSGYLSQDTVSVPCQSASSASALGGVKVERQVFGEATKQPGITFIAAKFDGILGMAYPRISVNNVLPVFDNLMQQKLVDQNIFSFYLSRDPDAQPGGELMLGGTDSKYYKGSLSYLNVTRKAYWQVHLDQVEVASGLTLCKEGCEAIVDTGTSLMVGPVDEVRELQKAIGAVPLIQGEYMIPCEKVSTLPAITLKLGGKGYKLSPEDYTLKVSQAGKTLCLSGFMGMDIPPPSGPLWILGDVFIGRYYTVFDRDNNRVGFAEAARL
run_description: Mammalian protease panel
Type: biochemical

# molecule, measurement_target, IC50
rows = [
    ("COc1cccc2[nH]c(C(=O)N[C@@H](CC(C)C)C(=O)N[C@@H](C[C@@H]3CCNC3=O)C(=O)CO)cc12 [PF-00835231]", "Human Cathepsin D (Homo sapiens)", "> 11 µM"),
]

* * *

measurement_target: OC43-CoV 3CL^pro (Human coronavirus OC43, UniProt P0C6X6)
Sequence (P0C6X6 3247-3549): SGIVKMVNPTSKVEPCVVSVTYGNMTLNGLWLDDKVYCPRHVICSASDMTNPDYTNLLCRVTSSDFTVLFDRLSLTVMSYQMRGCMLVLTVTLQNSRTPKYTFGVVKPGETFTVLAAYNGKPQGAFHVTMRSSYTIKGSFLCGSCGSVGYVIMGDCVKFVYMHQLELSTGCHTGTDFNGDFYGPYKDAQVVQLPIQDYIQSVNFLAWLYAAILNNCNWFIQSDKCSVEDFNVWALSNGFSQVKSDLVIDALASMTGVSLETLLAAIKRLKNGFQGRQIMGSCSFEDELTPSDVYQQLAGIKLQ
Format: biochemical
readout_name: Ki (pM)

# record_smiles, reading
measured = [
    ("COc1cccc2[nH]c(C(=O)N[C@@H](CC(C)C)C(=O)N[C@@H](C[C@@H]3CCNC3=O)C(=O)CO)cc12", 510),
]

* * *

measurement_target: UniProtKB P20813
Sequence (P20813 1-491): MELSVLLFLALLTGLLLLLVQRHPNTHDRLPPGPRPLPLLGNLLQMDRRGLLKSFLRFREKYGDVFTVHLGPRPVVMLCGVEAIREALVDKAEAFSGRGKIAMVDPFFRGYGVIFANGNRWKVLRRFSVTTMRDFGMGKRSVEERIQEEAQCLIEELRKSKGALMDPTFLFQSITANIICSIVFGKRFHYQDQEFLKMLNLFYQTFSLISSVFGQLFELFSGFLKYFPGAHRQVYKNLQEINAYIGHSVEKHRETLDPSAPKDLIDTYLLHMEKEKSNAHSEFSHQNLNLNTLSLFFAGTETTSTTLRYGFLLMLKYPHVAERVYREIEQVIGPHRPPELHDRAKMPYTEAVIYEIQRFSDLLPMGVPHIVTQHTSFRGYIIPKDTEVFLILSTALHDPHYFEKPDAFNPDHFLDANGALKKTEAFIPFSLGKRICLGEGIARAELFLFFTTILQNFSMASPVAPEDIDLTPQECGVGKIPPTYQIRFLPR
run_description: Reversible CYP inhibition in human liver microsomes
Format: in vitro ADME
reported_conditions: human, human liver microsomes, pH 7.4, CYP 2B6, 200 µM, 30-Minute Preincubation; read-out: Percent of Control Activity

# record_smiles, measurement_target, unit, activity at 200 µM
records = [
    ("COc1cccc2[nH]c(C(=O)N[C@@H](CC(C)C)C(=O)N[C@@H](C[C@@H]3CCNC3=O)C(=O)CO)cc12", "UniProtKB P20813", "%", 59),
]
